Here the recorded Top (MFI) is given for each entry.
- Test system: T1, human SLC34A2 (human, UniProt O95436 1-690)
- T1 construct: whole, on cells; also called human solute carrier 34 A2; NaPi2b
- T1 sequence (looked up): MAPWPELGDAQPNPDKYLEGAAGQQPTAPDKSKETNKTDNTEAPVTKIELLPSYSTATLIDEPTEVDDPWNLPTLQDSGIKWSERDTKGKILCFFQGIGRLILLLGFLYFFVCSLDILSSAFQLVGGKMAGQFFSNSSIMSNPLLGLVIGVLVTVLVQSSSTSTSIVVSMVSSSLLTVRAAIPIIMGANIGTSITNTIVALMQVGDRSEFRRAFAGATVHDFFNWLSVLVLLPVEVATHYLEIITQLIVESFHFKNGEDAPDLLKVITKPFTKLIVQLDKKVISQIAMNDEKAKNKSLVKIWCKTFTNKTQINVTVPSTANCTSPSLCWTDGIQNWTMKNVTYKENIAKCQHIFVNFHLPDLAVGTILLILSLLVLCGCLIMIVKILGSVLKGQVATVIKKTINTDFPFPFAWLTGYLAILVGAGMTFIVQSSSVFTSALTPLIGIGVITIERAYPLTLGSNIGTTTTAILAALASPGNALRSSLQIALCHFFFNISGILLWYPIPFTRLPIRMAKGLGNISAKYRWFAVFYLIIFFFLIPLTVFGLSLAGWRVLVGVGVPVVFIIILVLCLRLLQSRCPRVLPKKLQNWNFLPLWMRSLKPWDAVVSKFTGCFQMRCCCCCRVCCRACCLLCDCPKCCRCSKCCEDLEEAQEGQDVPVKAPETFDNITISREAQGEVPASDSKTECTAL
- Protocol: FACS, OVCAR3 cells
Quantity name: Top (MFI)

INSERT INTO results (binder, readout_value) VALUES
  ('xi55E5B6D12 hIgG1 (antibody, V domains shown, chimeric, hIgG1) VH: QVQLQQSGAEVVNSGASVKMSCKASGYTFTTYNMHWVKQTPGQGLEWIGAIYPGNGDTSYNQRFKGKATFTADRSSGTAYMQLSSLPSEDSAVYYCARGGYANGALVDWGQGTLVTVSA VL: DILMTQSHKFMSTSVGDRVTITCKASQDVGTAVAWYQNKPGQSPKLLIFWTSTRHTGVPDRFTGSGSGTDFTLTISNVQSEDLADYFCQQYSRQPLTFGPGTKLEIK', 42900),
  ('xi94E9B12 hIgG1 (antibody, V domains shown, chimeric, hIgG1) VH: QVQLQQPGAELVKPGASVKMSCKASGYTFTSYNMQWVKQTYGQGLEWIGAISPGSGETSYNQNFKVKATLTADKISSTAYMQLSSLTSEDSAVYYCARAARAEGWFAYWGQGTLVTVSA VL: DIVMTQSHKFMSTSVGDRVSITCKASQDVGHAVVWYQQKPGQFPKLLIYWASTRHAGVPDRFTGSGSGTDFTLTISNVQSEDLADYFCQQFRSIPLTFGSGTKLEIK', 46200);

src = patent US20240301052A1
